target: BACE1 (Homo sapiens); construct: endogenous in cells; assay: Cellular Aβ-lowering assay (Abeta 40 AlphaLISA, HEK293 APP cells); settings: 18-20 hrs incubation, Aβ 40 in culture supernatant, read-out: BACE1 cell act. Aβ40 IC50
Measurement Type: IC50 (nM)

See these solved cases before continuing.
CN=[S@]1(=O)C[C@@](C)(c2cc(-c3cc(-c4ncc(Cl)cn4)no3)ccc2F)N=C(N)C1(C)C [Example 12, 2,2,2-trifluoroacetate]: 19
CN=[S@]1(=O)C[C@@](CF)(c2cc(-c3cc(-c4ncc(OC)cn4)no3)ccc2F)N=C(N)C1(C)C: 106
[2H]C([2H])([2H])N=[S@@]1(=O)C[C@@](C)(c2cc(-c3cc(-c4cnc(OC)cn4)no3)ccc2F)N=C(N)C1(C)C: 50

A = CN=[S@@]1(=O)C[C@@](CF)(c2cc(-c3cc(-c4ncc(Cl)cn4)no3)ccc2F)N=C(N)C1(C)C [Example 3, 2,2,2-trifluoroacetate]
B = CN=[S@@]1(=O)C[C@@](C)(c2cc(-c3cc(-c4ncc(Cl)cn4)no3)ccc2F)N=C(N)C1(C)C [Example 6, 2,2,2-trifluoroacetate]
Given the two records A and B , choose the one whose IC50 value is lower. Identify your selection by its label. B
(B: 6 nM, A: 89 nM)

----------
target: BACE1 (Homo sapiens); construct: endogenous in cells; host or cells: HEK293 APP cells; test: Cellular Aβ-lowering assay (Abeta 40 AlphaLISA, HEK293 APP cells); assay type: cell-based; settings: 18-20 hrs incubation, Aβ 40 in culture supernatant, read-out: BACE1 cell act. Aβ40 IC50
pIC50: −log10 of the molar value.
Measurement Type: pIC50

Take a look at these entries with their results.
CN=[S@@]1(=O)C[C@@](C)(c2cc(-c3cc(-c4cnc(OCC(F)F)cn4)no3)ccc2F)N=C(N)C1(C)C [Example 5, 2,2,2-trifluoroacetate]: 7.89
CN=[S@@]1(=O)C[C@@](C)(c2cc(-c3cc(-c4ncc(Cl)cn4)no3)ccc2F)N=C(N)C12CCCC2 [Example 28, 2,2,2-trifluoroacetate]: 8.15
CN=[S@@]1(=O)C[C@@](CF)(c2cc(-c3cc(-c4ncc(OC)cn4)no3)ccc2F)N=C(N)C1(C)C: 6.92
CN=[S@]1(=O)C[C@@](C)(c2cc(-c3cc(-c4ncc(OCC(F)F)cn4)no3)ccc2F)N=C(N)C1(C)C: 7.57

1 = CN=[S@]1(=O)C[C@@](CF)(c2cc(-c3cc(-c4ncc(Cl)cn4)no3)ccc2F)N=C(N)C1(C)C [Example 1, 2,2,2-trifluoroacetate]
2 = CC1(C)C(N)=N[C@](C)(c2cc(-c3cc(-c4ncc(Cl)cn4)no3)ccc2F)C[S@@]1(=O)=NC1CC1 [Example 36, 2,2,2-trifluoroacetate]
3 = CN=[S@@]1(=O)C[C@@](C)(c2cc(-c3cn(-c4ccc(Cl)cn4)nn3)ccc2F)N=C(N)C1(C)C [Example 9, 2,2,2-trifluoroacetate]
4 = [2H]C([2H])([2H])N=[S@@]1(=O)C[C@@](C)(c2cc(-c3cc(-c4ncc(CC)cn4)no3)ccc2F)N=C(N)C1(C)C [Example 26, 2,2,2-trifluoroacetate]
# desc sort on pIC50 across 4 molecules Reply format: the labels, ordered as requested. 2, 3, 4, 1
(2: 8.15, 3: 7.77, 4: 7.43, 1: 7.02)

----------
// each record: one item and its IC50 for cathepsin D (from human liver) (Homo sapiens, UniProt P07339)
Measurement Type: IC50 (µM)

CN=[S@@]1(=O)C[C@@](C)(c2cc(-c3cc(-c4ncc(Cl)cn4)no3)ccc2F)N=C(N)C12CCCC2 [Example 28, 2,2,2-trifluoroacetate]: 16

1 = CN=[S@]1(=O)C[C@@](CF)(c2cc(-c3cc(-c4ncc(Cl)cn4)no3)ccc2F)N=C(N)C1(C)C [Example 1, 2,2,2-trifluoroacetate]
2 = COc1cnc(-c2cc(-c3ccc(F)c([C@]4(C)C[S@@](=N)(=O)C(C)(C)C(N)=N4)c3)on2)cn1
Param pair: 1 , 2 . Output: the one whose IC50 is numerically greater. Label of pick, please. 1

----------
target: BACE1 (Homo sapiens); construct: endogenous in cells; experiment: Cellular Aβ-lowering assay (Abeta 40 AlphaLISA, HEK293 APP cells); conditions: 18-20 hrs incubation, Aβ 40 in culture supernatant, read-out: BACE1 cell act. Aβ40 IC50
pIC50: −log10 of the molar value.
Measurement Type: pIC50

CN=[S@@]1(=O)C[C@@](CF)(c2cc(-c3cn(-c4ccc(Cl)cn4)nn3)ccc2F)N=C(N)C1(C)C [Example 16, 2,2,2-trifluoroacetate]: 6.81
CN=[S@@]1(=O)C[C@@](C)(c2cc(-c3cc(-c4cnc(OC)cn4)no3)ccc2F)N=C(N)C1(C)C [Example 7, 2,2,2-trifluoroacetate]: 7.25
CN=[S@@]1(=O)C[C@@](C)(c2cc(-c3cc(-c4cnc(OC)cn4)no3)ccc2F)N=C(N)C12CCCC2 [Example 27, 2,2,2-trifluoroacetate]: 6.86

1 = CN=[S@@]1(=O)C[C@@](C)(c2cc(-c3cc(-c4cnc(OCC(F)(F)F)cn4)no3)ccc2F)N=C(N)C1(C)C [Example 21, 2,2,2-trifluoroacetate]
2 = CN=[S@@]1(=O)C[C@@](CF)(c2cc(-c3cc(-c4ncc(Br)cc4C)no3)ccc2F)N=C(N)C1(C)C [Example 15, 2,2,2-trifluoroacetate]
Please indicate which item has the smaller measured pIC50: 1 versus 2 Returns: label corresponding to the selected item. 2

----------
target: CYP2C9 (Homo sapiens, UniProt P11712); construct: 0.2 mg/ml pooled human liver microsomes; from tissue; host or cells: pooled human liver microsomes; assay: CYP inhibition assay, human liver microsomes; assay type: in vitro ADME
Sequence (P11712 whole entry): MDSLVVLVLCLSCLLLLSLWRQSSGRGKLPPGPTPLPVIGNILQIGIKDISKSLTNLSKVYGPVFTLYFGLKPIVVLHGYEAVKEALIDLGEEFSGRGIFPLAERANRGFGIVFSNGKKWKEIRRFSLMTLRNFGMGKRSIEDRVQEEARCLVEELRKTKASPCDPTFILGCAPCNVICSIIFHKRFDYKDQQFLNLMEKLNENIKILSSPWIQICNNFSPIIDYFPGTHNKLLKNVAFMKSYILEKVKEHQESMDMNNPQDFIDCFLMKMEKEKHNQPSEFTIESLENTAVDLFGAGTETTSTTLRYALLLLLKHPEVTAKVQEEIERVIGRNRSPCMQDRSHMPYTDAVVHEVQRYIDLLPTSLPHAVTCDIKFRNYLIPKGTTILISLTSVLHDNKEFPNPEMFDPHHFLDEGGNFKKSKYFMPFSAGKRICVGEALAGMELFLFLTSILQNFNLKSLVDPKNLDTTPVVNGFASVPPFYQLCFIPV
Measurement Type: IC50

# lookup: CYP2C9 (Homo sapiens, UniProt P11712) IC50, key = CN=[S@@]1(=O)C[C@@](C)(c2cc(-c3cc(-c4ncc(Cl)cn4)no3)ccc2F)N=C(N)C12CCCC2 [Example 28, 2,2,2-trifluoroacetate] > 10 µM

----------
target: BACE1 (Homo sapiens, UniProt P56817); construct: endogenous in cells; experiment: Cellular Aβ-lowering assay (Abeta 40 AlphaLISA, HEK293 APP cells); conditions: 18-20 hrs incubation, Aβ 40 in culture supernatant, read-out: BACE1 cell act. Aβ40 IC50
Sequence (P56817 46-501): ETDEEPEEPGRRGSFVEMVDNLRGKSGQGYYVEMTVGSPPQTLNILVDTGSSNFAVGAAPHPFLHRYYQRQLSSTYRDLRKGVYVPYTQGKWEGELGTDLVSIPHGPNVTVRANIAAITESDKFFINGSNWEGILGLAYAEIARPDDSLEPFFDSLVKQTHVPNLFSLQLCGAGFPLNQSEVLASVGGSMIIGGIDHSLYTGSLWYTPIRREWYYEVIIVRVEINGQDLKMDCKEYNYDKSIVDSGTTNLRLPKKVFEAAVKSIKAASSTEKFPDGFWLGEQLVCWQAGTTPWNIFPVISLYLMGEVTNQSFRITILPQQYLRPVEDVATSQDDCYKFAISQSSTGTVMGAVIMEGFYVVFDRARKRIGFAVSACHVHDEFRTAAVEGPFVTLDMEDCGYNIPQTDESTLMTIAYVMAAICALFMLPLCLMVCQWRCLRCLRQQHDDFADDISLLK
pIC50: −log10 of the molar value.
Measurement Type: pIC50

Guide cases for pIC50, answers given:
CN=[S@@]1(=O)C[C@@](C)(c2cc(-c3cc(-c4ncc(C#N)cn4)no3)ccc2F)N=C(N)C1(C)C [Example 8, 2,2,2-trifluoroacetate]: 7.66
COc1cnc(-c2cc(-c3ccc(F)c([C@]4(C)C[S@](=O)(=NC5CC5)C(C)(C)C(N)=N4)c3)on2)cn1 [Example 33]: 7.04
[2H]C([2H])([2H])N=[S@@]1(=O)C[C@@](C)(c2cc(-c3cc(-c4ncc(OCC(F)(F)C(F)F)cn4)no3)ccc2F)N=C(N)C1(C)C [Example 25, 2,2,2-trifluoroacetate]: 7.89
CN=[S@@]1(=O)C[C@@](C)(c2cc(-c3cn(-c4ccc(C#N)cn4)nn3)ccc2F)N=C(N)C1(C)C [Example 10, 2,2,2-trifluoroacetate]: 7.70

P = COc1cnc(-c2cc(-c3ccc(F)c([C@]4(C)C[S@@](=O)(=NCC(F)(F)F)C(C)(C)C(N)=N4)c3)on2)cn1 [Example 37, 2,2,2-trifluoroacetate]
Q = COc1cnc(-c2cc(-c3ccc(F)c([C@]4(C)C[S@](=O)(=NCC(F)(F)F)C(C)(C)C(N)=N4)c3)on2)cn1 [Example 39, 2,2,2-trifluoroacetate]
Select one. Lower pIC50: P or Q Reply briefly: the label of your chosen item. Q
(Q: 6.63, P: 8.22)

----------
target: recombinant human cathepsin E (Homo sapiens); experiment: Cathepsin E fluorescent substrate kinetic assay; details: pH 4.5, substrate MR121-CKLVFFAEDW
Sequence (P14091 54-396): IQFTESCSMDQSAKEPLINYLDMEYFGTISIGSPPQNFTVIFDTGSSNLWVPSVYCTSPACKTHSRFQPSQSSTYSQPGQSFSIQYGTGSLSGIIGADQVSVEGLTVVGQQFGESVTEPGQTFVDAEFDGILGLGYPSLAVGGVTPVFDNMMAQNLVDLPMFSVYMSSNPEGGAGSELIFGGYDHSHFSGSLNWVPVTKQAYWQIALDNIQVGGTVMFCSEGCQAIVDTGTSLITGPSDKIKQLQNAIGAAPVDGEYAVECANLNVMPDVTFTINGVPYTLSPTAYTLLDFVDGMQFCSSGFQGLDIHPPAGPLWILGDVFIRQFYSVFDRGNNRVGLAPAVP
Measurement Type: IC50 (µM)

Record excerpt, results attached:
CN=[S@@]1(=O)C[C@@](C)(c2cc(-c3cc(-c4ncc(Cl)cn4)no3)ccc2F)N=C(N)C1(C)C [Example 6, 2,2,2-trifluoroacetate]: 79
CN=[S@@]1(=O)C[C@@](C)(c2cc(-c3cc(-c4cnc(OC)cn4)no3)ccc2F)N=C(N)C1(C)C [Example 7, 2,2,2-trifluoroacetate]: 182
CN=[S@@]1(=O)C[C@@](C)(c2cc(-c3cc(-c4ncc(Cl)cn4)no3)ccc2F)N=C(N)C12CCCC2 [Example 28, 2,2,2-trifluoroacetate]: 7
COc1cnc(-c2cc(-c3ccc(F)c([C@]4(C)C[S@@](=N)(=O)C(C)(C)C(N)=N4)c3)on2)cn1 [Example 41]: 56
[2H]C([2H])([2H])N=[S@@]1(=O)C[C@@](C)(c2cc(-c3cc(-c4cnc(OC)cn4)no3)ccc2F)N=C(N)C1(C)C [Example 24]: 167

I = CN=[S@@]1(=O)C[C@@](C)(c2cc(-c3cc(-c4cnc(OCC(F)F)cn4)no3)ccc2F)N=C(N)C1(C)C [Example 5, 2,2,2-trifluoroacetate]
II = CN=[S@]1(=O)C[C@@](CF)(c2cc(-c3cc(-c4ncc(Cl)cn4)no3)ccc2F)N=C(N)C1(C)C [Example 1, 2,2,2-trifluoroacetate]
Could you please tell me which of these two has the higher IC50: I or II ? Return value: the label identifying the chosen record. II
